- SUBJECT OF TEST: JAK1 (Homo sapiens, UniProt P23458)
- Construct: purchased Carna Biosciences, Inc
- Sequence (P23458 whole entry): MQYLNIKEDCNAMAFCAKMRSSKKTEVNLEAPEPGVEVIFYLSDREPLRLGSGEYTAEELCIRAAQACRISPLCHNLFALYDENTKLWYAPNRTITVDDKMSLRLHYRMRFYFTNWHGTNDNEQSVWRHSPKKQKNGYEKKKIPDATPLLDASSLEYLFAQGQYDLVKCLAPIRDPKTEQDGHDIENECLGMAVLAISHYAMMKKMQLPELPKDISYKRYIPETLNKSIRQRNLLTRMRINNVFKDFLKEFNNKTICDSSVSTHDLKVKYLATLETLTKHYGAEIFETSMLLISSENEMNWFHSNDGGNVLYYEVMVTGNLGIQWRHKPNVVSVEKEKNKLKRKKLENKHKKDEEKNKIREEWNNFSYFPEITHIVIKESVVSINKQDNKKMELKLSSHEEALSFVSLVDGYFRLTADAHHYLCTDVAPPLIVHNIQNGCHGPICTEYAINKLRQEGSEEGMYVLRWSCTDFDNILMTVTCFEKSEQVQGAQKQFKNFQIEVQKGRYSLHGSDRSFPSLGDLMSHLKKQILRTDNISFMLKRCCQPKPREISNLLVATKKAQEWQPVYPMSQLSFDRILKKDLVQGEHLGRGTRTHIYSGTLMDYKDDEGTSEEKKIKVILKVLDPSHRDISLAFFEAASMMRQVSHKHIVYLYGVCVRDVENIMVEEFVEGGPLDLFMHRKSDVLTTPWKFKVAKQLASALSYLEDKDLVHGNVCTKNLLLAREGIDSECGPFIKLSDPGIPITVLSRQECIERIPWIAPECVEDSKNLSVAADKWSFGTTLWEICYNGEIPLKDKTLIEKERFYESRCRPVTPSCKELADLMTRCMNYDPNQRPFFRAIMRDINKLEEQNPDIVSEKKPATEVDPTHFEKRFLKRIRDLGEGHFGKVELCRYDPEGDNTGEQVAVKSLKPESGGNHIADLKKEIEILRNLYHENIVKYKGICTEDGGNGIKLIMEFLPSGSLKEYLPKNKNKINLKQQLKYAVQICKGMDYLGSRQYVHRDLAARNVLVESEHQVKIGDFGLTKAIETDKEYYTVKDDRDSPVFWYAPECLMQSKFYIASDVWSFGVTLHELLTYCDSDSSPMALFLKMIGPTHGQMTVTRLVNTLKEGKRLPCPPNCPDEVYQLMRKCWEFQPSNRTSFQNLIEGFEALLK
- EXPERIMENTAL PROTOCOL: JAK tyrosine kinase inhibitory activity in the presence of 1 mM ATP (ELISA), JAK1
- Assay type: biochemical
Structures can show the parent of a compound that is named as a salt.
Classify: True when IC50 is strictly less than 1000 nM; False when IC50 is not.

COMPOUND	LABEL VALUE
C[C@@H](Nc1cc(C(=O)N2CCC(NC(=O)OCC(F)F)CC2)nc(-c2cnn3ccsc23)n1)C1CC1 [Example 96, hydrochloride]	True
C[C@H](Nc1cc(C(=O)N2CCC(O)CC2)nc(-c2cnn3ccsc23)n1)C1CC1 [Example 20, hydrochloride]	False
CCC(CC)Nc1cc(C(=O)N2CCC(NC(=O)C3CC3)CC2)nc(-c2cnn3ccsc23)n1	True

Bench note: check whether N#CCC(=O)N1CC[C@H](Nc2cc(C(=O)N3CCC(NC(=O)C4CC4)CC3)nc(-c3cnn4ccsc34)n2)C1 shows IC50 below 1000 nM
False

The measured values listed here are drawn from patent US9999622B2.
